# Test system: HL-60(TB)
# MEASUREMENT_SETUP: read-out: LC50, Leukemia
OBSERVATION_TYPE: CC50 (nM)
# unit: nM | format: bare number

Query :: Entry under review: C=C1C[C@H]2C(O)Nc3cc(OCCCOc4cc5c(cc4OC)C(=O)N4CC(=C)C[C@H]4C(O)N5)c(OC)cc3C(=O)N2C1 (stereo partly shown) [Compound 16] . Reported CC50?
Result :: 28.2

====

# Test system: MOLT-4
# EXPERIMENTAL_DETAILS: 60-cell-line screen: MOLT-4 (Leukemia)
# Type: cell-based
# MEASUREMENT_SETUP: read-out: LC50 (the source's name)
OBSERVATION_TYPE: CC50 (nM)
Report as a plain number; the unit nM is understood.

Query :: # query: CC50 of entry C=C1C[C@H]2C(O)Nc3cc(OCCCOc4cc5c(cc4OC)C(=O)N4CC(=C)C[C@H]4C(O)N5)c(OC)cc3C(=O)N2C1 (stereo partly shown)
Result :: 70.8
